- assay.system: ΔF508 mutant CFTR (Homo sapiens, UniProt P13569, DEL508-508)
- Construct: expressed in transfected cells; host or cells: Fischer rat thyroid (FRT) cells
- Sequence (P13569 with tags, fused parts or gaps DEL508-508): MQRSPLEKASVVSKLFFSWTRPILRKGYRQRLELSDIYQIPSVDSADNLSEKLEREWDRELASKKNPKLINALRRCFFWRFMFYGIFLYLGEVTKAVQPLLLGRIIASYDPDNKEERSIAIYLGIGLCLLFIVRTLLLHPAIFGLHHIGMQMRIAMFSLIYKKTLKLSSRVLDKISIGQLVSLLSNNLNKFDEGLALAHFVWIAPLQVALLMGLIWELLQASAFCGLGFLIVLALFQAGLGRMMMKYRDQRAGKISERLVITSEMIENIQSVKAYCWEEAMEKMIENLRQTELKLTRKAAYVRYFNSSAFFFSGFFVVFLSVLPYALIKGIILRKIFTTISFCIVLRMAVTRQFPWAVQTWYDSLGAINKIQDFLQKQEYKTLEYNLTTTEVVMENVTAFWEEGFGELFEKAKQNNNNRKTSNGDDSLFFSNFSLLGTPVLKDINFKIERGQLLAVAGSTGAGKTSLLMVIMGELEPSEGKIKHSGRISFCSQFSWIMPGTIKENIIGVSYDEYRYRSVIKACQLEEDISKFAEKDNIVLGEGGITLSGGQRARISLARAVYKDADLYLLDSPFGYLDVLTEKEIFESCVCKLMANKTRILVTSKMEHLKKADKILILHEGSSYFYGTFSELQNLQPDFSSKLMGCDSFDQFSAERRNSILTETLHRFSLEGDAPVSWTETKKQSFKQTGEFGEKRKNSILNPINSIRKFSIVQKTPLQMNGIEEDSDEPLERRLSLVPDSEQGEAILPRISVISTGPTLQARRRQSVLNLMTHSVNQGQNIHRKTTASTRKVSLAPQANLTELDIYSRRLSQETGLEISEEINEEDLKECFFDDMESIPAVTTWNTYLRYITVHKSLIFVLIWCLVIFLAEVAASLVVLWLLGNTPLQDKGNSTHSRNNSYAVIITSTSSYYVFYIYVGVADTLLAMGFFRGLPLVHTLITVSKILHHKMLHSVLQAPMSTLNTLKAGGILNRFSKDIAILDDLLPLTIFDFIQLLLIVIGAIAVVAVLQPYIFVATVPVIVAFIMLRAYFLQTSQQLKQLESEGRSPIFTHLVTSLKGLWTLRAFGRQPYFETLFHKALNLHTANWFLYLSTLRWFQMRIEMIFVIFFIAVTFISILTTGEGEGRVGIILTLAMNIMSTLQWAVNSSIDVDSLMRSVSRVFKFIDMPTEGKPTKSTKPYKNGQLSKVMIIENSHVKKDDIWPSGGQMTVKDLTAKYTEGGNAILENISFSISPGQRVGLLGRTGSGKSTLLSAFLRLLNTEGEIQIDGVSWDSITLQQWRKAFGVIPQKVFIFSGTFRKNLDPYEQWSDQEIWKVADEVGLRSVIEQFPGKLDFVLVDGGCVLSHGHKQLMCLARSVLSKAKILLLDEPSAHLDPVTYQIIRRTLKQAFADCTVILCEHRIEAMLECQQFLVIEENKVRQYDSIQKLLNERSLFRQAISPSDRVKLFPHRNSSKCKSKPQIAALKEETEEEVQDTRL
- experiment.notes: Fluorescence Assay (halide-sensitive YFP, iodide influx) for ΔF508 mutant CFTR activity
- Assay type: cell-based
- assay.setup: FRT cells expressing ΔF508-CFTR and YFP-H148Q/I152L, incubated 27° C. 20-24 h; forskolin (20 μM) and test compounds (20 μM) for 20 min; rate of fluorescence quenching by I−, normalized to forskolin alone
Structures can show the parent of a compound that is named as a salt.
measured.attribute: CFTR Activity

Cl.NCCCCOc1sncc1NC(=O)c1ccc(F)c(-c2c(F)cccc2F)n1 [Example 15] :: 0.7
Cl.Nc1cc(F)c(-c2c(F)cccc2F)nc1C(=O)Nc1cnsc1OC1CCNCC1 [Example 25] :: 2.5
Cl.NCC(CCl)COc1sncc1NC(=O)c1ccc(C(F)(F)F)c(-c2c(F)cccc2F)n1 (stereo not drawn) [Example 54] :: 0.5
Cl.NC1CCCC(Oc2sncc2NC(=O)c2ccc(F)c(-c3c(F)cccc3F)n2)C1 (stereo not drawn) [Example 11] :: 1.1
O=C(Nc1cnsc1OCCCCO)c1ccc(F)c(-c2c(F)cccc2F)n1 [Example 19] :: 0.1
CC(O)CCOc1sncc1NC(=O)c1ccc(F)c(-c2c(F)cccc2F)n1 (stereo not drawn) [Example 18] :: 0.12
Cl.N[C@H]1CC[C@H](Oc2sncc2NC(=O)c2ccc(C(F)(F)F)c(-c3c(F)cccc3F)n2)CC1 [Example 46] :: 1
Cl.Nc1cc(C(F)(F)F)c(-c2c(F)cccc2F)nc1C(=O)Nc1cnsc1OCC1CCNCC1 [Example 49] :: 0.2
CNCCCCOc1sncc1NC(=O)c1ccc(F)c(-c2c(F)cccc2F)n1.Cl [Example 16] :: 0.5
Cl.O=C(Nc1cnsc1OC1CCCNC1)c1ccc(F)c(-c2c(F)cccc2F)n1 (stereo not drawn) [Example 5] :: 0.5
COc1cccc(F)c1-c1nc(C(=O)Nc2cnsc2OC2CCCNCC2)ccc1F.Cl (stereo not drawn) [Example 41] :: 1.6
Cl.O=C(Nc1cnsc1OC1CCNCC1)c1ccc(F)c(-c2c(F)cccc2F)n1 [Example 3] :: 1.3
O=C(Nc1cnsc1OCC1CCOCC1)c1ccc(F)c(-c2c(F)cccc2F)n1 [Example 22] :: 0.3
Cl.O=C(Nc1cnsc1OC1CCNC1)c1ccc(F)c(-c2c(F)cccc2F)n1 (stereo not drawn) [Example 4] :: 0.8
CN(C)CCCOc1sncc1NC(=O)c1ccc(F)c(-c2c(F)cccc2F)n1.Cl [Example 14] :: 0.3
CNCCCOc1sncc1NC(=O)c1ccc(F)c(-c2c(F)cccc2F)n1.Cl [Example 13] :: 0.5
Cl.Nc1cc(F)c(-c2c(F)cccc2F)nc1C(=O)Nc1cnsc1OCC1CCNCC1 [Example 23] :: 2.2
Cl.NCCCOc1sncc1NC(=O)c1ccc(F)c(-c2c(F)cccc2F)n1 [Example 12] :: 0.7
Cl.O=C(Nc1cnsc1OCC1CCNC1)c1ccc(F)c(-c2c(F)cccc2F)n1 (stereo not drawn) [Example 8] :: 0.7
Cl.Nc1cc(F)c(-c2c(F)cccc2F)nc1C(=O)Nc1cnsc1OC1CCCC(N)C1 (stereo not drawn) [Example 37] :: 2.9
Cl.O=C(Nc1cnsc1OC1CCCNCC1)c1ccc(F)c(-c2c(F)cccc2F)n1 (stereo not drawn) [Example 6] :: 1.4
Cl.Nc1cc(F)c(-c2c(F)cccc2F)nc1C(=O)Nc1cnsc1OCC1CCCNC1 (stereo not drawn) [Example 35] :: 1.6
Cl.Nc1cc(C(F)(F)F)c(-c2c(F)cccc2F)nc1C(=O)Nc1cnsc1OC1CCNCC1 [Example 51] :: 0.7
NCC(CCl)Oc1sncc1NC(=O)c1ccc(F)c(-c2c(F)cccc2F)n1 (stereo not drawn) [Example 29, hydrochloride] :: 1.4
